Target: PIK4CB (Homo sapiens)
Sequence (Q9UBF8 whole entry, species assumed): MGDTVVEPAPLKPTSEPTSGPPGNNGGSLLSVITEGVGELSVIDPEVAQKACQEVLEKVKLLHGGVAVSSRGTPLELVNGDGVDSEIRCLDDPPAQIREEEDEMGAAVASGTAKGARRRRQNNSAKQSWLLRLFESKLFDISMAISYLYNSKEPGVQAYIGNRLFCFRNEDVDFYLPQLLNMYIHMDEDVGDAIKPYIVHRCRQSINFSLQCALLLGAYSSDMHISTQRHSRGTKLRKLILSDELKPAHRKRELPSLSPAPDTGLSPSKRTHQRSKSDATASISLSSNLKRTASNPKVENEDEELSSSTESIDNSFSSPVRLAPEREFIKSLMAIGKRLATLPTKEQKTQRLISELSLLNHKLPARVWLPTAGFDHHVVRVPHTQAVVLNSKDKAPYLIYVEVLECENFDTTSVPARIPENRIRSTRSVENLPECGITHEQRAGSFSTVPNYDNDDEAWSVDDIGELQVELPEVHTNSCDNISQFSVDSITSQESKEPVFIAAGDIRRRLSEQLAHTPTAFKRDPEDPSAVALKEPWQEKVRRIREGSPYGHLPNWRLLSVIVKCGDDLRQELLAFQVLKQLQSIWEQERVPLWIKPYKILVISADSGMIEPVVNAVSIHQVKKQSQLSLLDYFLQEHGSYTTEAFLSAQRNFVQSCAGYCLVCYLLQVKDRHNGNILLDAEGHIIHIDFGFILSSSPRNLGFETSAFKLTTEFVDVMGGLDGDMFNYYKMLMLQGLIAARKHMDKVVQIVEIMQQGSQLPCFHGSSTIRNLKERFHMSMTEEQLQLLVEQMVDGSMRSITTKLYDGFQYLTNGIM
quantity name: Kd (nM)
Reply numerically in nM, unit not repeated.

**Q:** For Nc1nc2c(-c3cnc4ccccc4c3)nccc2[nH]1 [drawing 36] , what is its reported Kd?
**A:** 350

====

Biological target: RSK1 (Homo sapiens, UniProt Q15418)
Sequence (Q15418 whole entry): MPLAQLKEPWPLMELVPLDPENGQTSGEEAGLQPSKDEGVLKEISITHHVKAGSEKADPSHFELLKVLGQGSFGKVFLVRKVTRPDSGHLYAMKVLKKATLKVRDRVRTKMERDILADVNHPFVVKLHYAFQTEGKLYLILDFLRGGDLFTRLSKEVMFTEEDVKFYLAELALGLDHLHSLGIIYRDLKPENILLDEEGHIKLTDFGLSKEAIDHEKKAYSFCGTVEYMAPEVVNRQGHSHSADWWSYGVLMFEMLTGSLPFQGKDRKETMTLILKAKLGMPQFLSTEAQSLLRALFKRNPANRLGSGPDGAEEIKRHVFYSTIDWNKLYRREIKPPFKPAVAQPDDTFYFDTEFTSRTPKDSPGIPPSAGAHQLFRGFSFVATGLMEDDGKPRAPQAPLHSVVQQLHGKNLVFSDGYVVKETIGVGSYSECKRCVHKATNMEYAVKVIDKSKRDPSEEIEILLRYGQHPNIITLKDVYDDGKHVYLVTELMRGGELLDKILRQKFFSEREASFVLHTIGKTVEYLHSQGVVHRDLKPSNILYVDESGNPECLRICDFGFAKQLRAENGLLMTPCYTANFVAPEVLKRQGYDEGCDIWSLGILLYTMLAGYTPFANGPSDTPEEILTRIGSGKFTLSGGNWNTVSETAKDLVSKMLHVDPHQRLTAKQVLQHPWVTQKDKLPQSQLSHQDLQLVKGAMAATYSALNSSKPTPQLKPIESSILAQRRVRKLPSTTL
quantity name: Kd (nM)
Reply numerically in nM, unit not repeated.

**Q:** For Nc1nc2c(-c3ccccn3)nccc2[nH]1 [drawing 35] , what is its reported Kd?
**A:** 530

====

Biological target: DYRK2 (Homo sapiens, UniProt Q92630)
Sequence (Q92630 whole entry, species assumed): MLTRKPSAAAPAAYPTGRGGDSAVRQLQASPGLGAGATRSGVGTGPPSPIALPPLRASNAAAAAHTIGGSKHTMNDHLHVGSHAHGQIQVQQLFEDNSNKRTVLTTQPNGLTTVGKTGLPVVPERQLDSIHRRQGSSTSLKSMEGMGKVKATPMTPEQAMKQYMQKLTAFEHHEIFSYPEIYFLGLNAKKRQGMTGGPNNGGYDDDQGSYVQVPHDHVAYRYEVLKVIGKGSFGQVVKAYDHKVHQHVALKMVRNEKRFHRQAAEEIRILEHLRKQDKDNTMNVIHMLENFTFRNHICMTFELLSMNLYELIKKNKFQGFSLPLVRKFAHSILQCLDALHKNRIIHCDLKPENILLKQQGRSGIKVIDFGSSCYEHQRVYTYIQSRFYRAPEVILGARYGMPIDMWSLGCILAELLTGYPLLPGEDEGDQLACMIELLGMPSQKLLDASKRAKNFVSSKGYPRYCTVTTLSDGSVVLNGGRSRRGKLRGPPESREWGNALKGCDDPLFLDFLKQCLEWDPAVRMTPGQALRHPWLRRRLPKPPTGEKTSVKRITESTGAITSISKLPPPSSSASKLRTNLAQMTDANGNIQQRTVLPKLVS
quantity name: pKd
Schema: pKd number; meaning minus log10 of the concentration expressed in molar units.

**Q:** For Nc1nc2c(-c3cnc4ccccc4c3)nccc2[nH]1 [drawing 36] , what is its reported pKd?
**A:** 6.01
